system: platelet aggregation (platelet-rich plasma); experiment: Inhibition of platelet aggregation (ADP-induced), Born's turbidimetric method, human blood; type: cell-based; settings: 2 min; human platelet-rich plasma; adenosine diphosphate 5 μM; 2 min after addition of test liquid; 600 nm; read-out: Concentration (ng/ml) for 50% inhibition, human blood
property: IC50 (ng/mL)

| compound | readout.unit | readout.value |
| --- | --- | --- |
| CCCCC[C@H](O)/C=C/[C@H]1[C@H](O)CC(=O)[C@@H]1CCCCCCC(=O)O [Compound A, PGE1, reference compound] | ng/mL | 9.3 |
| CCCCC[C@H](O)/C=C/[C@@H]1[C@H]2CC(CCCCC(=O)O)=C[C@H]2C[C@H]1O [Compound C, reference compound] | ng/mL | 3.6 |
| CC#CCC(C)[C@H](O)/C=C/[C@@H]1[C@H]2CC(CCCCC(=O)O)=C[C@H]2C[C@H]1O (stereo partly shown) | ng/mL | 0.4 |
| O=C(O)CCCCC1=C[C@H]2C[C@@H](O)[C@H](/C=C/[C@@H](O)CC3CCCC3)[C@H]2C1 | ng/mL | 1.1 |
| O=C(O)CCCCC1=C[C@H]2C[C@@H](O)[C@H](/C=C/[C@@H](O)C3CCCCC3)[C@H]2C1 | ng/mL | 0.9 |
| O=C(O)CCCCC1=C[C@H]2C[C@@H](O)[C@H](/C=C/[C@@H](O)C3CCCC3)[C@H]2C1 | ng/mL | 0.5 |
| C=CCCCC(C)[C@H](O)/C=C/[C@@H]1[C@H]2CC(CCCCC(=O)O)=C[C@H]2C[C@H]1O (stereo partly shown) | ng/mL | 1.8 |

From: patent US5489613A
